This collection of values is drawn from PubChem BioAssay AID1259318.

// reported activity per item
Test system: Nuclear receptor subfamily 1 group D member 1 (Homo sapiens)
Test: modulators of Rev-erb alpha DNA binding, primary screen, biochemical, FITC-DNA, fluorescence polarization, uHTS (AID 1259318);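 also: 0% = DMSO wells with 35 nM protein and 100% = DMSO wells with 750 nM protein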
Condition context: Rev-erbα–FITC-DNA binding, 90 min, at 10 µM, active compounds read high
Among all 370,000 compounds or so, about 3,000 (0.81%) were called active. The sample as a whole holds a higher share of actives than the screen did.
Give the number; % is assumed, so skip it.

Measured activity, O=C(N/N=C/c1ccc(OCC2COCCO2)cc1)c1ccc(Br)cc1 (centres undefined) : -0.42

Measured activity, `Cc1[nH]c2ccccc2c1CC(=O)Nc1ccc(Nc2cccnc2)c(-c2cccc(Cl)c2)c1` : 3.32
